Data origin: the DeepSol protein solubility set

experiment: soluble on expression in E. coli; label from the status in PepcDB or PDB records
Parameter Measured: soluble on expression in E. coli

Illustrative cases are given below, each with its answer.
| Sequence Record | soluble on expression in E. coli |
| --- | --- |
| MGSDKIHHHHHHMSSTKIIATFNQSGGAAKTTITHNLGYHLAKKHRVLLVDMDPQASLTAFMGLGEVKLQTEQTIYGAIAEETPLYIWEKPIHGMHLVPTNIQLAGTEQKIFHDLTIDNRQRLKFVLSNVLDQYDYILIDCPPSLGILSIMSLVAASHVIIPVETQYKCYLGTNQLLETIARLKKGGHQKLQIACIIPTKYDNRNLQDTGILEEIKQQVEGRIHVTAPIPKSTAFPDATQAHLPLALHKKNHPAVSILEEITKYITQLSVTQGQSH | not soluble |
| AARPRKNNVSVPNLYPLYSRKVNKVYWRYKHPVTGKFHALGTNEAEAIAIATEANTRLAEQRTRQILAISDRIATSKGKAITTSTWLDRYQAIQDDRLKSGDIRLNTYKQKAKPVSLLRERAGMKLISAVDVRDIAQLLDEYIAAGRPRMAQVVRSVLIDVFKEAQHYGEVPPGYNPALATKQPRRKITRQRLSLEEWKKIFDIADATHRYMGNAMLLALVTGQRLGDISRMKFSDIWDDHLHVIQEKTGSKIAIPLSLRLNAINWSLRDVVARCRDYAVSAYLVHFFRSTSQAERGAQVKANTLTMNFSKARDLARIDWGEGSPATFHEQRSLSERLYKEQGLDTQKLLGHKTQQQTDRYHDDRGKGWSKVAL | not soluble |
| GPGSMDGRNGSKRARSEPANGPNQSNVGTSGVEEPHVEEVPARDPELERQLDRLNIDDNLKESLRGLSPSTRGEVMNDIIRSETIERASSLMEQANLLSLIELRRLPELMEEGMSSQHYRADVDDDSELHEFGQALEDMQADGQSPSPQRGRPHGMLHTPGPLILEFLRAFAAGTHAAFADAAGVSEHLNILSELAAQRAMGVTEDVDNMSYEELLELEDKIGYVSRGVKPEDVQKCVKDVPTPHEGNCVVCQCEWSDNAETAPAVVELNRCKHVFHRTCIREWLLKNKKCPVCTQEVV | soluble |
| MEDYLVKALCYKGSIRAYAISATETVSEAQRRHDTWSSSTAALGRTLIGALLLGATLKGDDKLTVKVQGNGPAGAIIVDSNGRGETKGYIKNPHVSLKLNATGKIDVRGAVGNEGIFTVIKDLGLKETFSGQTPIVSGEIGEDFTYFMAVSEQVPSAIGLGVLVDTDESVKAAGGFMIQVMPGADESTIDFIEQRLAEVPPISQLLENGETPEQVLYRLLGEDEVEILEKMPVQFKCDCSKEKFATALIAVGIDELNAMIDEDHGAEAVCQFCNNKYHYSEEELIELRDEAIRNTKQK | not soluble |

Answer with the recorded soluble on expression in E. coli of MGSDKIHHHHHHVKIAIASDHAAFELKEKVKNYLLGKGIEVEDHGTYSEESVDYPDYAKKVVQSILSNEADFGILLCGTGLGMSIAANRYRGIRAALCLFPDMARLARSHNNANILVLPGRLIGAELAFWIVDTFLSTPFDGGRHERRIRKIDEV only. soluble
